system: Fibroblast; test: Multiplex assay against human fibroblast; assay type: toxicity, cell-based; settings: 12 h, 1 µM, compound concentration 1 uM, replicate 1
QUANTITY: Population Mitotic Cells (%)
Mention the unit after the number when you answer.

Q: Which Population Mitotic Cells (%) is listed for `COc1ccccc1N1CCN(C[C@@H](C(=O)NC(C)(C)C)c2ccccc2)CC1.Cl.Cl` ?
A: 56%

* * *

Here, each record is paired with measured Population Mitochondria Different-Phenotype (%) data.
test system: U2OS; assay: Multiplex assay against U2OS; type: toxicity, cell-based; details: human, 48 h, 10 µM, compound concentration 10 uM, replicate 2
Field: numeric (%). Do not append units.

Q: Which Population Mitochondria Different-Phenotype (%) is listed for COC[C@@H](c1ccc(C(F)(F)F)cc1)N1CCN(C2(C)CCN(C(=O)c3c(C)ncnc3C)CC2)C[C@@H]1C.O=C(O)/C=C\C(=O)O [VICRIVIROC MALEATE] ?
A: 6

* * *

test system: U2OS; test: Multiplex assay against U2OS; assay type: toxicity, cell-based; conditions: human, 48 h, 10 µM, compound concentration 10 uM, replicate 1
QUANTITY: Population Mitotic Cells (%)
Field: numeric (%). Do not append units.

Q: Notebook entry, U2OS assay: Population Mitotic Cells (%) of `CC(C)COc1ccc(CNC(=O)N(Cc2ccc(F)cc2)C2CCN(C)CC2)cc1` = ?
A: 1

Q: Notebook entry, U2OS assay: Population Mitotic Cells (%) of `CC(=O)Nc1cccc2c1c(Sc1ccc(Cl)cc1)c(C)n2CC(=O)O` = ?
A: 0

Q: Notebook entry, U2OS assay: Population Mitotic Cells (%) of `N#Cc1c(Oc2cccc(OS(=O)(=O)CCCC(F)(F)F)c2)cccc1C(F)(F)F` = ?
A: 8

Q: Notebook entry, U2OS assay: Population Mitotic Cells (%) of Cl.NCCc1ccc(O)c(O)c1 [DOPAMINE HYDROCHLORIDE] = ?
A: 14

Q: Notebook entry, U2OS assay: Population Mitotic Cells (%) of COC[C@@H](c1ccc(C(F)(F)F)cc1)N1CCN(C2(C)CCN(C(=O)c3c(C)ncnc3C)CC2)C[C@@H]1C.O=C(O)/C=C\C(=O)O [VICRIVIROC MALEATE] = ?
A: 20

Q: Notebook entry, U2OS assay: Population Mitotic Cells (%) of `CC(/C=C1\SC(=S)N(CCCC(=O)Nc2ccc(C(=O)O)c(O)c2)C1=O)=C\c1ccccc1` = ?
A: 2

Q: Notebook entry, U2OS assay: Population Mitotic Cells (%) of `CN1CCN(c2cc(-c3ccccc3)nc(N)n2)CC1` = ?
A: 0

Q: Notebook entry, U2OS assay: Population Mitotic Cells (%) of `N#Cc1cc(F)cc(-c2nc(-c3ccc(F)cn3)no2)c1` = ?
A: 14

Q: Notebook entry, U2OS assay: Population Mitotic Cells (%) of `Cc1noc(-c2ccc(-c3ccc(CC(=O)O)cc3)cc2)c1NC(=O)O[C@H](C)c1ccccc1Cl` = ?
A: 7

* * *

tested on: Fibroblast; test: Multiplex assay against human fibroblast; format: toxicity, cell-based; conditions: 12 h, 1 µM, compound concentration 1 uM, replicate 1
hey, just use MET if measured Population Apoptotic (%) is less than 50%, otherwise NOT MET

# count of solved cases: 4
[
  {
    "COMPOUND": "Cc1cccc(NC(=O)CN2CCC(c3ccccn3)CC2)c1.Cl.Cl",
    "CLASSIFICATION": "MET"
  },
  {
    "COMPOUND": "Cl.N=C(N)NC(=O)Cc1c(Cl)cccc1Cl [GUANFACINE HYDROCHLORIDE]",
    "CLASSIFICATION": "MET"
  },
  {
    "COMPOUND": "CN[C@@H](C)C(=O)N[C@H](C(=O)N1CCC[C@H]1C(=O)Nc1snnc1-c1ccccc1)C1CCCCC1",
    "CLASSIFICATION": "NOT MET"
  },
  {
    "COMPOUND": "CCCOc1ccc2[nH]cc(C3=CCNCC3)c2n1.Cl",
    "CLASSIFICATION": "MET"
  }
]

Q: Hello, I'm reviewing records and need to know if Population Apoptotic (%) of `Cc1cnc(-c2cc(N3CCN(C(=O)CCS(C)(=O)=O)CC3)ncc2Cl)c(C)c1` is below 50%. Could you check?
A: MET

Q: Hello, I'm reviewing records and need to know if Population Apoptotic (%) of `Cc1c(CC(=O)O)c2cccnc2n1Cc1ccc(S(C)(=O)=O)cc1C(F)(F)F` is below 50%. Could you check?
A: MET

Q: Hello, I'm reviewing records and need to know if Population Apoptotic (%) of Cc1sc2c(c1C)C(c1ccc(Cl)cc1)=N[C@@H](CC(=O)NCCCCCCCCNC(=O)COc1cccc3c1C(=O)N(C1CCC(=O)NC1=O)C3=O)c1nnc(C)n1-2 (some centres undefined) is below 50%. Could you check?
A: NOT MET

Q: Hello, I'm reviewing records and need to know if Population Apoptotic (%) of `CN1CCN(c2cc(-c3ccccc3)nc(N)n2)CC1` is below 50%. Could you check?
A: MET

Q: Hello, I'm reviewing records and need to know if Population Apoptotic (%) of `C[C@H](N)COC(=O)[C@@H](CCCCN)NC(=O)Cc1c(-c2ccc3ccccc3c2)[nH]c2c1ccc1ccccc12` is below 50%. Could you check?
A: MET
